Value source: patent US20250230154A1

biological target: SHP2 protein (Homo sapiens, UniProt Q06124); experiment: Measurement of SHP2 protein degradation in MV-4-11 cells (western blotting); assay type: cell-based; parameters: endogenous in cells; host or cells: MV-4-11; settings: MV-4-11 cells, 1000 nM, 24 hours
measuredParameter: SHP2 degradation (%) 1000 nM

compoundStructureString | SHP2 degradation (%) 1000 nM
Cc1ncsc1-c1ccc(CNC(=O)[C@@H]2C[C@@H](O)CN2C(=O)[C@@H](NC(=O)C2(F)CC2)C(C)(C)C)c(OCCCN2CCC(CC(=O)Nc3cccc(Sc4ncc(N5CCC(C)(CN)CC5)nc4N)c3Cl)CC2)c1 | 95.0
Cc1ncsc1-c1ccc(CNC(=O)[C@@H]2C[C@@H](O)CN2C(=O)[C@@H](NC(=O)C2(F)CC2)C(C)(C)C)c(OCCC2CCN(C(=O)C(=O)Nc3cccc(Sc4cnc(N5CCC(C)(CN)CC5)cn4)c3Cl)CC2)c1 | 91.5
Cc1ncsc1-c1ccc(CNC(=O)[C@@H]2C[C@@H](O)CN2C(=O)[C@@H](NC(=O)C2(F)CC2)C(C)(C)C)c(OCCCC2CCN(C(=O)C(=O)Nc3cccc(Sc4cnc(N5CCC(C)(CN)CC5)cn4)c3Cl)CC2)c1 | 94
Cc1ncsc1-c1ccc(CNC(=O)[C@@H]2C[C@@H](O)CN2C(=O)[C@@H](NC(=O)C2(F)CC2)C(C)(C)C)c(OCCC2CCN(C(=O)CC(=O)Nc3cccc(Sc4ncc(N5CCC(C)(CN)CC5)nc4N)c3Cl)CC2)c1 | 90.5

* * *

molecular target: SHP2 protein (Homo sapiens); experiment: Measurement of SHP2 protein degradation in KYSE-520 cells (western blotting); type: cell-based; design: endogenous in cells; details: 10 nM, 24 hours
measuredParameter: SHP2 degradation (%) 10 nM

A. Cc1ncsc1-c1ccc(CNC(=O)[C@@H]2C[C@@H](O)CN2C(=O)[C@@H](NC(=O)C2(F)CC2)C(C)(C)C)c(OCCCCN2CCC(CCC(=O)Nc3cccc(Sc4cnc(N5CCC(C)(CN)CC5)cn4)c3Cl)CC2)c1 [Example 15]
B. Cc1ncsc1-c1ccc(CNC(=O)[C@@H]2C[C@@H](O)CN2C(=O)[C@@H](NC(=O)C2(F)CC2)C(C)(C)C)c(OCCCCCC(=O)N2CCC(CCCC(=O)Nc3cccc(Sc4cnc(N5CCC(C)(CN)CC5)cn4)c3Cl)CC2)c1 [Example 26]
C. Cc1ncsc1-c1ccc(CNC(=O)[C@@H]2C[C@@H](O)CN2C(=O)[C@@H](NC(=O)C2(F)CC2)C(C)(C)C)c(OCCCCCCN2CCC(CCCC(=O)Nc3cccc(Sc4cnc(N5CCC(C)(CN)CC5)cn4)c3Cl)CC2)c1 [Example 18]
D. Cc1ncsc1-c1ccc(CNC(=O)[C@@H]2C[C@@H](O)CN2C(=O)[C@@H](NC(=O)C2(F)CC2)C(C)(C)C)c(OCCCC(=O)N2CCC(CC(=O)Nc3cccc(Sc4cnc(N5CCC(C)(CN)CC5)cn4)c3Cl)CC2)c1 [Example 23]
E. Cc1ncsc1-c1ccc(CNC(=O)[C@@H]2C[C@@H](O)CN2C(=O)[C@@H](NC(=O)C2(F)CC2)C(C)(C)C)c(OCCCN2CCC(CCC(=O)Nc3cccc(Sc4cnc(N5CCC(C)(CN)CC5)cn4)c3Cl)CC2)c1 [Example 14]
Order the entries above by descending SHP2 degradation (%) 10 nM. Give the labels in the order specified. B, A, E, D, C

P. Cc1ncsc1-c1ccc(CNC(=O)[C@@H]2C[C@@H](O)CN2C(=O)[C@@H](NC(=O)C2(F)CC2)C(C)(C)C)c(OCCCN2CCC(C(=O)Nc3cccc(Sc4cnc(N5CCC(C)(CN)CC5)cn4)c3Cl)CC2)c1 [Example 1]
Q. Cc1ncsc1-c1ccc(CNC(=O)[C@@H]2C[C@@H](O)CN2C(=O)[C@@H](NC(=O)C2(F)CC2)C(C)(C)C)c(OCCCC(=O)N2CCC(CCC(=O)Nc3cccc(Sc4cnc(N5CCC(C)(CN)CC5)cn4)c3Cl)CC2)c1 [Example 24]
Which shows the larger SHP2 degradation (%) 10 nM value: P or Q ? Identify your pick by its label. P

* * *

target: SHP2 protein (Homo sapiens); assay: Measurement of SHP2 protein degradation in MV-4-11 cells (western blotting); format: cell-based; set-up: endogenous in cells; host or cells: MV-4-11; settings: MV-4-11 cells, 10 nM, 24 hours
measuredParameter: SHP2 degradation (%) 10 nM

Past entries and their recorded results:
molecule | unitAnnotation | numericResult
Cc1ncsc1-c1ccc(CNC(=O)[C@@H]2C[C@@H](O)CN2C(=O)[C@@H](NC(=O)C2(F)CC2)C(C)(C)C)c(OCCN2CC3CCC(C2)N3C(=O)CC(=O)Nc2cccc(Sc3cnc(N4CCC(C)(CN)CC4)cn3)c2Cl)c1 [Example 68] | % | 83.3
Cc1ncsc1-c1ccc(CNC(=O)[C@@H]2C[C@@H](O)CN2C(=O)[C@@H](NC(=O)C2(F)CC2)C(C)(C)C)c(OCCN2CCN(C(=O)CC(=O)Nc3cccc(Sc4cnc(N5CCC(C)(CN)CC5)cn4)c3Cl)C[C@H]2C(=O)O)c1 [Example 69] | % | 20

A. Cc1ncsc1-c1ccc(CNC(=O)[C@@H]2C[C@@H](O)CN2C(=O)[C@@H](NC(=O)C2(F)CC2)C(C)(C)C)c(OCCN2CCN(C(=O)CC(=O)Nc3cccc(Sc4cnc(N5CCC(C)(CN)CC5)cn4)c3Cl)C[C@@H]2C(=O)O)c1 [Example 70]
B. Cc1ncsc1-c1ccc(CNC(=O)[C@@H]2C[C@@H](O)CN2C(=O)[C@@H](NC(=O)C2(F)CC2)C(C)(C)C)c(OCC2CCN(C(=O)CC(=O)Nc3cccc(Sc4cnc(N5CCC(C)(N)CC5)cn4)c3Cl)CC2)c1 [Example 29]
// select label with min value of measured SHP2 degradation (%) 10 nM from [ A , B ] Identify your pick by its label. A

* * *

target: SHP2 protein (Homo sapiens); assay: Measurement of SHP2 protein degradation in MV-4-11 cells (western blotting); type: cell-based; parameters: endogenous in cells; host or cells: MV-4-11; conditions: MV-4-11 cells, 100 nM, 24 hours
measuredParameter: SHP2 degradation (%) 100 nM

compoundStructureString | targetSystem | numericResult
Cc1ncsc1-c1ccc(CNC(=O)[C@@H]2C[C@@H](O)CN2C(=O)[C@@H](NC(=O)C2(F)CC2)C(C)(C)C)c(OCCCN2CCN(C(=O)CC(=O)Nc3cccc(Sc4cnc(N5CCC(C)(CN)CC5)cn4)c3Cl)[C@@H](C)C2)c1 | SHP2 protein (Homo sapiens) | 96.6

P. Cc1ncsc1-c1ccc(CNC(=O)[C@@H]2C[C@@H](O)CN2C(=O)[C@@H](NC(=O)C2(F)CC2)C(C)(C)C)c(OCCN2CCN(c3nccc(C(=O)Nc4cccc(Sc5cnc(N6CCC(C)(CN)CC6)cn5)c4Cl)n3)CC2)c1
Q. Cc1ncsc1-c1ccc(CNC(=O)[C@@H]2C[C@@H](O)CN2C(=O)[C@@H](NC(=O)C2(F)CC2)C(C)(C)C)c(OCCCC2CCN(C(=O)CC(=O)Nc3cccc(Sc4cnc(N5CCC(C)(CN)CC5)cn4)c3Cl)CC2)c1
R. Cc1ncsc1-c1ccc(CNC(=O)[C@@H]2C[C@@H](O)CN2C(=O)[C@@H](NC(=O)C2(F)CC2)C(C)(C)C)c(OCCN2CCN(C(=O)C(C)(C)C(=O)Nc3cccc(Sc4cnc(N5CCC(C)(CN)CC5)cn4)c3Cl)CC2)c1
Please produce an ascending ranking of these compounds based on SHP2 degradation (%) 100 nM. Give the labels in the order specified. R, P, Q
(R: 3.0%, P: 23.8%, Q: 92.5%)

* * *

biological target: SHP2 protein (Homo sapiens, UniProt Q06124); experiment: Measurement of SHP2 protein degradation in MV-4-11 cells (western blotting); type: cell-based; set-up: endogenous in cells; host or cells: MV-4-11; settings: MV-4-11 cells, 100 nM, 24 hours
measuredParameter: SHP2 degradation (%) 100 nM

Past entries and their recorded results:
compoundStructureString | SHP2 degradation (%) 100 nM
CC(=O)N[C@H](C(=O)N1C[C@H](O)C[C@H]1C(=O)NCc1ccc(-c2scnc2C)cc1OCCN1CCN(C(=O)CC(=O)Nc2cccc(Sc3cnc(N4CCC(C)(CN)CC4)cn3)c2Cl)CC1)C(C)(C)C | 99.8
Cc1ncsc1-c1ccc(CNC(=O)[C@@H]2C[C@@H](O)CN2C(=O)[C@@H](NC(=O)C2(F)CC2)C(C)(C)C)c(OCCCCN2CCN(CC(=O)Nc3cccc(Sc4cnc(N5CCC(C)(CN)CC5)cn4)c3Cl)C(=O)C2)c1 | 99.5

1. Cc1ncsc1-c1ccc(CNC(=O)[C@@H]2C[C@@H](O)CN2C(=O)[C@@H](NC(=O)C2(F)CC2)C(C)(C)C)c(OCCCN2CCN(CC(=O)Nc3cccc(Sc4cnc(N5CCC(C)(CN)CC5)cn4)c3Cl)CC2)c1
2. Cc1ncsc1-c1ccc(CNC(=O)[C@@H]2C[C@@H](O)CN2C(=O)[C@@H](NC(=O)C2(F)CC2)C(C)(C)C)c(OCC2CCN(C(=O)C3(C(=O)Nc4cccc(Sc5cnc(N6CCC(C)(CN)CC6)cn5)c4Cl)CC3)CC2)c1
// select label with min value of measured SHP2 degradation (%) 100 nM from [ 1 , 2 ] Identify your pick by its label. 2
(2: 52.3%, 1: 81.2%)
